PBM binding z-score for assorted sequences
- Tested on: PPARg:RXRa DBDmut IVT, anti-RXR (DBD mutation: RXRa K156A/R161A, NR concentration 270 nM, RXRa partner concentration 90 nM)
- protocolText: PBM binding z-score (relative to random genomic background probes); higher = stronger binding; sequences stand for … in GC…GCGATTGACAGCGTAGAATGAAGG

monomerSequence: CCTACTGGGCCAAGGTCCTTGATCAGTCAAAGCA
PBM binding z-score: 3.51
--
monomerSequence: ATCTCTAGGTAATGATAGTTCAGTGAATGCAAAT
PBM binding z-score: 2.25
--
monomerSequence: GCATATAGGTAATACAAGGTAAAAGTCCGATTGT
PBM binding z-score: 3.98
--
monomerSequence: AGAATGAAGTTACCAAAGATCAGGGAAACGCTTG
PBM binding z-score: -0.595
--
monomerSequence: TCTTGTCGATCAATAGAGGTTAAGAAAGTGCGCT
PBM binding z-score: 1.37
--
monomerSequence: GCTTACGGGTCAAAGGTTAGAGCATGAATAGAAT
PBM binding z-score: 4.34
--
monomerSequence: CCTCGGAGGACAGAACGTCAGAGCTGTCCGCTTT
PBM binding z-score: -0.575
--
monomerSequence: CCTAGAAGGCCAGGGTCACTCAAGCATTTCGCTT
PBM binding z-score: 0.376
--
monomerSequence: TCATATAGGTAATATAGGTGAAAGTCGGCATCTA
PBM binding z-score: 5.06
--
monomerSequence: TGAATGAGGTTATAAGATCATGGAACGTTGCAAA
PBM binding z-score: 1.37
--
monomerSequence: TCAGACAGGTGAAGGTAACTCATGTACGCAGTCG
PBM binding z-score: 2.93
--
monomerSequence: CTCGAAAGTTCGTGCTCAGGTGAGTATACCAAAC
PBM binding z-score: -0.18
--
monomerSequence: TCTTGTAGATCAATAGAGGTTAAAAAAGTGCGCT
PBM binding z-score: 1.82
--
monomerSequence: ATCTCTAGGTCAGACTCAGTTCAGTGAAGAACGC
PBM binding z-score: 5.06
--
monomerSequence: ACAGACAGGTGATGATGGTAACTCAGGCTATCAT
PBM binding z-score: -0.209
--
monomerSequence: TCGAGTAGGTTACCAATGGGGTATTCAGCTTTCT
PBM binding z-score: 3.18
--
monomerSequence: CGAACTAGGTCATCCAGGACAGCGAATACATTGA
PBM binding z-score: 8.26
--
monomerSequence: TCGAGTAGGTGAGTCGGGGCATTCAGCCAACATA
PBM binding z-score: 3.41
--
monomerSequence: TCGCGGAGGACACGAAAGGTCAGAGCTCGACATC
PBM binding z-score: 0.791
--
monomerSequence: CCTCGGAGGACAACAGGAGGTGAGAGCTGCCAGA
PBM binding z-score: 0.262
--
monomerSequence: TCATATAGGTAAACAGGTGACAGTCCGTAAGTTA
PBM binding z-score: 4.87
--
monomerSequence: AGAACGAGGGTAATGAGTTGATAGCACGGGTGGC
PBM binding z-score: 1.74
--
monomerSequence: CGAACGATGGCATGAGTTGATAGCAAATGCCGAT
PBM binding z-score: -0.534
--
monomerSequence: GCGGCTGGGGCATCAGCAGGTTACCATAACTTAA
PBM binding z-score: -0.444
--
monomerSequence: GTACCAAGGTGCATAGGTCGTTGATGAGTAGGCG
PBM binding z-score: -0.499
--
monomerSequence: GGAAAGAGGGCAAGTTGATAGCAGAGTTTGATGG
PBM binding z-score: 3.57
--
monomerSequence: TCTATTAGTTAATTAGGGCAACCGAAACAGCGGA
PBM binding z-score: 4.63
--
monomerSequence: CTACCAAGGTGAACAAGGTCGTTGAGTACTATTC
PBM binding z-score: 2.21
--
monomerSequence: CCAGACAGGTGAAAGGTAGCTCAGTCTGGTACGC
PBM binding z-score: 2.97
--
monomerSequence: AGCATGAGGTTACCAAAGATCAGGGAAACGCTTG
PBM binding z-score: 0.803
--
monomerSequence: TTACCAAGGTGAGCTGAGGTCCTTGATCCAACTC
PBM binding z-score: 0.555
--
monomerSequence: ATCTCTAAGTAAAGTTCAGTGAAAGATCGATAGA
PBM binding z-score: 0.19
--
monomerSequence: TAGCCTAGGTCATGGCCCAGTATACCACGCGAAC
PBM binding z-score: 1.98
--
monomerSequence: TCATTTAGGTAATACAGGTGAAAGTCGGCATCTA
PBM binding z-score: 3.53
--
monomerSequence: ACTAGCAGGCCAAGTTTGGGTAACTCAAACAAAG
PBM binding z-score: 0.555
--
monomerSequence: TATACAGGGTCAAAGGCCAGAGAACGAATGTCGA
PBM binding z-score: 2.4
--
monomerSequence: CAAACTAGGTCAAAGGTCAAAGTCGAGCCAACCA
PBM binding z-score: 8.73
--
monomerSequence: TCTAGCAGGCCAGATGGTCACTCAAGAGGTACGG
PBM binding z-score: 0.614
--
monomerSequence: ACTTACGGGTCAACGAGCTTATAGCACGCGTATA
PBM binding z-score: 3.07
--
monomerSequence: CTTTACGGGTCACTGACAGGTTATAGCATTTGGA
PBM binding z-score: 4.85
--
monomerSequence: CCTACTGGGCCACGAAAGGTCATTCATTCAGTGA
PBM binding z-score: 5.95
